- assayTarget: recombinant human GBA (rhGBA, Imiglucerase) (Homo sapiens, UniProt P04062, R534H)
- Construct: purchased Sanofi Genzyme (Cambridge, MA, USA)
- Sequence (P04062 40-536 R534H): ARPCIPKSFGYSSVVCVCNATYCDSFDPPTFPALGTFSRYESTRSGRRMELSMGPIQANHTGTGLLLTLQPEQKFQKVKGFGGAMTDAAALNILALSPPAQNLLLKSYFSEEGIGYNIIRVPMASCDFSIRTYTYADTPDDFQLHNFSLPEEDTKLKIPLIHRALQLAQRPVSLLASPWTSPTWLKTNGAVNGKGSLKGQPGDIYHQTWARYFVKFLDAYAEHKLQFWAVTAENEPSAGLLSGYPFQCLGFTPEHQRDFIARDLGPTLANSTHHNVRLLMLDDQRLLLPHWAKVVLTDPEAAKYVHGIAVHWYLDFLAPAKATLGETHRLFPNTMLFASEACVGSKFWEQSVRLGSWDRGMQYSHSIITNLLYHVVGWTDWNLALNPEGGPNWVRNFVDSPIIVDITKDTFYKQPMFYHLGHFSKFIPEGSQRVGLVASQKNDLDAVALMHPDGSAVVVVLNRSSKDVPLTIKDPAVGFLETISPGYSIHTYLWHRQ
- protocolDescription: In vitro apparent IC50, fluorogenic substrate assay on rhGBA
- Type: biochemical
- testContext: 3 hr pre-incubation; read-out: apparent IC50 value, GBA
measurementLabel: pIC50
Scale explanation: pIC50 corresponds to minus log10 of a concentration expressed in moles per litre.

Param item: CCCCCCCCN1[C@@H]2[C@H](Cn3cc(CNC(=O)CCCCC[N+]4=C(/C=C/C=C/C=C5/N(C)c6ccccc6C5(C)C)C(C)(C)c5ccccc54)nn3)[C@@H](O)[C@H](O)[C@@H](O)[C@@H]21 (stereo partly shown) [ABP 6] ; param system: recombinant human GBA (rhGBA, Imiglucerase) (Homo sapiens, UniProt P04062, R534H); output pIC50: 7.28

Data credit: paper PMC9298352
